target.or.system: T1, FcγRIIa (R167) (biotinylated, Acro Biosystems) (UniProt P12318 36-218, biotinylated)
T1 sequence (looked up): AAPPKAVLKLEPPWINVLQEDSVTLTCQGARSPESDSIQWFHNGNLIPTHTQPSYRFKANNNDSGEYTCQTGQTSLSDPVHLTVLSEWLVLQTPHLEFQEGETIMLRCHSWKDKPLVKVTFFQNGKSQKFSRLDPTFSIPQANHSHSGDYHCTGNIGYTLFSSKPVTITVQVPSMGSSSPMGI
assay.details: BLI (Octet), biotinylated FcγR on SA sensor, steady state analysis
Listing: Kd of selected binders
Report as a plain number; the unit nM is understood.

binder	measured.metric	observed.result
H135 (Fc fusion, not shown: hinge; copies: 2 + 2) chain (part 1 of 2): QVQLQESGGGSVQAGGSLKLTCAASGYIFNSCGMGWYRQSPGRERELVSRISGDGDTWHKESVKGRFTISQDNVKKTLYLQMNSLKPEDTAVYFCAVCYNLETYWGQGTQVTVSS chain (part 2 of 2): APEAEGAPSVFLFPPKPKDTLMISRTPEVTCVVVDVSHEDPEVKFNWYVDGVEVHNAKTKPREEQYNSTYRVVSVLTVLAQDWLNGKEYKCKVSNKALPSSIEKTISKAKGQPREPQVYTLPPSREEMTKNQVSLTCLVKGFYPSDIAVEWESNGQPENNYKTTPPVLDSDGSFFLYSKLTVDKSRWQQGNVFSCSVMHEALHNHYTQKSLSLSPG	Kd	1200
D138 (Fc fusion, not shown: hinge; copies: 2 + 2) chain (part 1 of 2): EVQLVESGGGEVQPGGSLRLSCAASGSIFSINAMGWYRQAPGKQRELVAGFTGDTNTIYAESVKGRFTISRDNAKNTVYLQMSSLRAEDTAVYYCAADVQLFSRDYEFYWGQGTLVTVKP chain (part 2 of 2): APEAEGAPSVFLFPPKPKDTLMISRTPEVTCVVVDVSHEDPEVKFNWYVDGVEVHNAKTKPREEQYNSTYRVVSVLTVLHQDWLNGKEYKCKVSNKALPSSIEKTISKAKGQPREPQVYTLPPSREEMTKNQVSLTCLVKGFYPSDIAVEWESNGQPENNYKTTPPVLDSDGSFFLYSKLTVDKSRWQQGNVFSCSVMHEALHNQYTQKSLSLSPG	Kd	520
H133 (Fc fusion, not shown: hinge; copies: 2 + 2) chain (part 1 of 2): QVQLQESGGGSVQAGGSLKLTCAASGYIFNSCGMGWYRQSPGRERELVSRISGDGDTWHKESVKGRFTISQDNVKKTLYLQMNSLKPEDTAVYFCAVCYNLETYWGQGTQVTVSS chain (part 2 of 2): APEAEGAPSVFLFPPKPKDTLMISRTPEVTCVVVDVSHEDPEVKFNWYVDGVEVHNAKTKPREEQYNSTYRVVSVLTVLHQDWLNGKEYKCKVSNKALPSSIEKTISKAKGQPREPQVYTLPPSREEMTKNQVSLTCLVKGFYPSDIAVEWESNGQPENNYKTTPPVLDSDGSFFLYSKLTVDKSRWQQGNVFSCSVMHEALHNHYTQKSLSLSPG	Kd	2300

// query Which Kd is reported for this binder? D134 (Fc fusion, not shown: hinge; copies: 2 + 2) chain (part 1 of 2): EVQLVESGGGEVQPGGSLRLSCAASGSIFSINAMGWYRQAPGKQRELVAGFTGDTNTIYAESVKGRFTISRDNAKNTVYLQMSSLRAEDTAVYYCAADVQLFSRDYEFYWGQGTLVTVKP chain (part 2 of 2): APEAEGAPSVFLFPPKPKDTLMISRTPEVTCVVVDVSHEDPEVKFNWYVDGVEVHNAKTKPREEQYNSTYRVVSVLTVLHQDWLNGKEYKCKVSNKALPSSIEKTISKAKGQPREPQVYTLPPSREEMTKNQVSLTCLVKGFYPSDIAVEWESNGQPENNYKTTPPVLDSDGSFFLYSKLTVDKSRWQQGNVFSCSVMHEALHNHYTQKSLSLSPG
// result 460

// query Which Kd is reported for this binder? D136 (Fc fusion, not shown: hinge; copies: 2 + 2) chain (part 1 of 2): EVQLVESGGGEVQPGGSLRLSCAASGSIFSINAMGWYRQAPGKQRELVAGFTGDTNTIYAESVKGRFTISRDNAKNTVYLQMSSLRAEDTAVYYCAADVQLFSRDYEFYWGQGTLVTVKP chain (part 2 of 2): APEAEGAPSVFLFPPKPKDTLMISRTPEVTCVVVDVSHEDPEVKFNWYVDGVEVHNAKTKPREEQYNSTYRVVSVLTVLAQDWLNGKEYKCKVSNKALPSSIEKTISKAKGQPREPQVYTLPPSREEMTKNQVSLTCLVKGFYPSDIAVEWESNGQPENNYKTTPPVLDSDGSFFLYSKLTVDKSRWQQGNVFSCSVMHEALHNHYTQKSLSLSPG
// result 570
